# Test system: MDA-MB-468 breast
# test_details: NCI-60 one-dose screen, 48 h (100 = growth as untreated, 0 = no growth, -100 = all killed)
# experimental_context: 10 µM unless noted
Compounds without any hit were thinned out: in the full panel of roughly 83,000, 20% have a hit.
Classify: yes when growth is strictly less than 40%; no when growth is not.

Consider the following illustrative entries.
CCn1c(SCc2ccc(C)cc2)nnc1-c1nn(-c2ccc(Cl)cc2Cl)c(-c2ccc(Cl)cc2)c1C
yes
CCOC(=O)c1cc(/C(=N\O)c2cc(OC)c(OC)c(OC)c2)n2cc(C)cc(C)c12
yes
Nc1ccccc1SC1CC(=O)N(c2ccc(Cl)c(Cl)c2)C1=O (stereo not given)
no

### Prompt Here's an entry: `COc1ccc(-c2ccccc2)cc1C(=O)c1ccc(-c2ccccc2)cc1` . Is its growth below 40%?
### Response no

### Prompt Follow-up entry: `CCOC(=O)c1cc(C(=O)c2cc(OC)c(OC)c(OC)c2)n2nc(C)ccc12`
### Response yes

### Prompt Follow-up entry: `COc1ccc(OC)c(/C=C2\COc3ccc(O)c(O)c3C2=O)c1`
### Response yes

### Prompt Follow-up entry: O=C1CCC23OC(c4ccccc4N12)C(O)C(O)C3O (stereo not given)
### Response no

### Prompt Follow-up entry: `COc1ccc2c(c1)CCc1c-2n[nH]c1-c1[nH]nc2c1CCc1cc(OC)ccc1-2`
### Response yes

### Prompt Follow-up entry: `COc1cccc(N2CCN(CC(=O)N3CCN(c4nnc(-c5ccc(Cl)cc5)c(-c5ccc(Cl)cc5)n4)CC3)CC2)c1`
### Response no

### Prompt Follow-up entry: `COc1cc(C(N)=O)cc(OC)c1OC`
### Response no

---

# System: A498 renal
# test_details: NCI-60 one-dose screen, 48 h
# experimental_context: 10 µM
About 83,000 compounds went through this panel and 20% of them were active in at least one assay; those are over-represented in the sample as a whole. Active and inactive are the calls of the source. How the source made its calls: active means growth percent below 10; inactive means the rest.
# valid calls are active, inactive; nothing else

O=C1S/C(=C\c2ccc([N+](=O)[O-])cc2)C(=O)N1CCN1CCCCC1
inactive
CC1(C)CC[C@]2(C(=O)O)CC[C@]3(C)C(=CCC4[C@@]5(C)C[C@@H](O)[C@@H]6OC(c7cccc(F)c7)OC[C@@]6(C)C5CC[C@]43C)C2C1 (some centres not stated)
inactive
COc1ccc(-n2c(SCC(=O)NNS(=O)(=O)c3ccccc3)nc3ccc(Cl)cc3c2=O)cc1
inactive

### Prompt Which outcome did this test record for the molecule `Cn1cc(-c2cc(N)n3nc(-c4cn(C)c5ccccc45)cc3n2)c2cc(F)ccc21` ?
### Response active

### Prompt Follow-up entry: `O=C(CC(=O)Nc1ccc(Oc2ncnc3scc(Nc4n[nH]c(=S)s4)c23)cc1)Nc1ccc(Br)cc1`
### Response inactive

### Prompt Follow-up entry: `C#C[C@]1(O)CC[C@H]2[C@@H]3CC=C4c5sc(Nc6ccc(C(F)(F)F)cn6)nc5CC[C@]4(C)[C@H]3CC[C@@]21C`
### Response active

### Prompt Follow-up entry: `COc1ccc2[nH]cc(-c3nc(N)nnc3-c3cn(C)c4ncc(Br)cc34)c2c1`
### Response active

### Prompt Follow-up entry: CCOC(=O)c1ccc(NC(=O)CSC(CC(=O)c2sc(Nc3ccccn3)nc2C)c2ccccc2F)cc1 (configuration not stated)
### Response active

### Prompt Follow-up entry: `Cc1ccc2c(c1)C(=O)/C(=C/c1ccc([N+](=O)[O-])cc1)S2`
### Response inactive

### Prompt Follow-up entry: `COc1ccc(NCc2cn(-c3ccc(C(=O)O)cc3)nc2-c2ccc(F)cc2)cc1C(F)(F)F`
### Response inactive

### Prompt Follow-up entry: `O=C(Nc1ccc(Oc2ncnc3scc(Nc4n[nH]c(=S)s4)c23)cc1)C1(C(=O)Nc2cccc(C(F)(F)F)c2)CC1`
### Response inactive

### Prompt Follow-up entry: `Cn1cc(-c2nnc(N)nc2-c2c[nH]c3ccccc23)c2cc(Br)cnc21`
### Response inactive

### Prompt Follow-up entry: `O=C(CSc1nc2ccccc2c(=O)n1-c1ccc(Cl)cc1)Nc1ccc(-c2nc3ccc([N+](=O)[O-])cc3[nH]2)cc1`
### Response inactive

### Prompt Follow-up entry: CCOC(=O)C1=C(N)N(c2ccc(C)cc2)C2=C(C(=O)CC(C)(C)C2)C1c1ccccc1Br (configuration not stated)
### Response inactive

### Prompt Follow-up entry: `Cn1cc(-c2cc3nc(-c4c[nH]c5ccccc45)cc(N)n3n2)c2cc(Cl)ccc21`
### Response active

### Prompt Follow-up entry: `Cn1cc(-c2nnc(N)nc2-c2c[nH]c3ccc(F)cc23)c2cc(Br)cnc21`
### Response inactive

### Prompt Follow-up entry: `COc1ccc(Cc2nn(CC(=O)N/N=C/c3ccc([N+](=O)[O-])cc3)c(=O)c3c(C)noc23)cc1`
### Response inactive

From: PubChem BioAssay (NCI)
